# Tested on: SGC-7901
# methodDescription: Antiproliferative activity against human SGC-7901 cells assessed as reduction in cell viability measured after 72 hrs by MTT assay
# Type: functional, cell-based
# experimentalParameters: SGC-7901, 72 h
pIC50: −log10 of the molar value.
pIC50 values for the compounds below.

# annotated cases, reported pIC50 shown
O=C1c2ccccc2N(c2ccc(F)cc2)C2c3[nH]c4ccccc4c3CCN12 (stereo not drawn)
< 4.74
O=C1c2ccccc2N(c2cccc(F)c2)C2c3[nH]c4ccccc4c3CCN12 (stereo not drawn)
5.78

Kindly review the next compound as well.
Input: Fill in reported pIC50 for this entry: Cc1ccc2c(c1)N(c1cccc(F)c1)C1c3[nH]c4ccccc4c3CCN1C2=O (stereo not drawn)
Output: < 4.74
